- System: NOMO1
- protocol: cell viability relative to DMSO control; higher = less cytotoxic
- test settings: HPLM + 10% dialyzed FBS; 48 h; 1.71 µM
measurement kind: cell viability (%)
Numbers only; they are read as %.

The cases that follow already have their cell viability on record.
OC(c1cc(C(F)(F)F)nc2c(C(F)(F)F)cccc12)C1CCCCN1 (centres undefined) | 142
CN[C@H]1CCC2=CC(=C(OC)C(=C2C/3=C/C=C(OC)\C(=O)/C=C13)OC)OC | 40.9
C[C@H]1COC2=C3N1\C=C(C(O)=O)/C(=O)C3=CC(=C2N4CCN(C)CC4)F | 108
S=C(NCc1ccc2c(c1)OCO2)N1CCN(c2ncnc3c2oc2ccccc23)CC1 | 105
COc1cc(OC2CCN(C)CC2)ccc1Nc1ncc2c(n1)n(C1CCCC1)c(=O)n2C | 108

Supply cell viability value. Item: CC1(C)O[C@@H]2C[C@H]3[C@@H]4C[C@H](F)C5=CC(=O)C=C[C@]5(C)[C@@]4(F)[C@@H](O)C[C@]3(C)[C@]2(C(=O)CO)O1
118

Supply cell viability value. Item: COC(=O)Nc1cc(Nc2cc(NC3CC3)c3ncc(C#N)n3n2)c(Cl)c(N2CCN(C)CC2)c1
86.7

Supply cell viability value. Item: CC[C@H](/C=C/[C@@H](C)[C@H]1CC[C@H]2[C@@H]3CC=C4C[C@@H](O)CC[C@]4(C)[C@H]3CC[C@]12C)C(C)C
96.7

Supply cell viability value. Item: COC\1=C(/OC)C(=O)\C(=C(C)/C1=O)CCCCCCCCCCO
154

Supply cell viability value. Item: COCC1(CO)C(=O)C2CCN1CC2 (centres undefined)
130

Supply cell viability value. Item: C[N]1C=C(C=N1)C2=C3\C=N/NC(=O)C4=C3C(=CC(=C4)NC(=O)[C@H](N)C5CCCCC5)[NH]2
78.3

Supply cell viability value. Item: c1ccc(CCCN2CCN(CCOC(c3ccccc3)c3ccccc3)CC2)cc1
103

Supply cell viability value. Item: C[C@H]1C[C@@H]2[C@H](CC[C@@]3(C)[C@H]2CC[C@]3(OC(C)=O)C(C)=O)[C@@]\4(C)CCC(=O)\C=C14
123

Supply cell viability value. Item: O=C(O)CCC1CCC(c2cc(F)ccc2F)([S+](=O)([O-])c2ccc(Cl)cc2)CC1 (centres undefined)
85.2

Supply cell viability value. Item: CCN(CC)CCOc1ccc(/C(=C(\Cl)c2ccccc2)c2ccccc2)cc1
134

Supply cell viability value. Item: N[S+]([O-])(=O)C1=C(Cl)C=C2\N=C/N[S+]([O-])(=O)C2=C1
119

----------
- Tested on: NOMO1
- protocol: AUC of viability dose-response curve (% viability x log10 dose units); higher = less sensitive
- test settings: RPMI 5 mM glucose + 10% dialyzed FBS; 48 h
In this section we review reported AUC of viability dose-response curve values for a set of molecules.
Just the number, please, no unit attached.

The cases that follow already have their AUC of viability dose-response curve on record.
COC(=O)C[C@](O)(CCCC(C)(C)O)C(=O)O[C@@H]1C(OC)=CC23CCCN2CCc2cc4c(cc2[C@H]13)OCO4 (some centres undefined) | 466
COC(c1ccccc1)(c1ccccc1)[C@H](Oc1nc(C)cc(C)n1)C(=O)O | 467
COc1ccc([S+](=O)([O-])N(C(C)=O)c2ccccc2/C=C/c2cc[n+]([O-])cc2)cc1 | 356
O=C(Nc1cc(Cl)cc2c1[nH]c1cnccc12)c1cccnc1 | 471
CCc1ccc(CCOc2ccc(CC3SC(=O)NC3=O)cc2)nc1 (centres undefined) | 460
CN[C@H]1CCC2=CC(=C(OC)C(=C2C/3=C/C=C(OC)\C(=O)/C=C13)OC)OC | 206

Supply AUC of viability dose-response curve value. Item: N[S+]([O-])(=O)C1=C(Cl)C=C2\N=C/N[S+]([O-])(=O)C2=C1
475

Supply AUC of viability dose-response curve value. Item: COC(=O)Nc1nc2cc(C(=O)c3ccccc3)ccc2[nH]1
397

Supply AUC of viability dose-response curve value. Item: CCOC(=O)N1CCN(/[N+]([O-])=N/Oc2ccc([N+](=O)[O-])cc2C#N)CC1
382

----------
- Test system: SEM cells
- protocol: cell viability relative to DMSO control; higher = less cytotoxic
- test settings: RPMI 5 mM glucose + 10% dialyzed FBS; 48 h; 0.00702 µM
measurement kind: cell viability (%)
Numbers only; they are read as %.

CC(C)(C)OC(=O)N[C@H]1CCCCC/C=C\[C@@H]2C[C@@]2(C(=O)N[S+](=O)([O-])C2CC2)NC(=O)[C@@H]2C[C@@H](OC(=O)N3Cc4cccc(F)c4C3)CN2C1=O | 93.4
Cc1cnn(C)c1C(=O)Nc1cc(Nc2ccc3c(/C=C/c4ccccn4)n[nH]c3c2)ccc1F | 144

Supply cell viability value. Item: O=C(c1ccc(F)cc1)N1CCC[C@H](c2nc(-c3ccc(F)cc3)no2)C1
130

----------
In this section we review reported cell viability values for a set of compounds.
- Tested on: SEM cells
- protocol: cell viability relative to DMSO control; higher = less cytotoxic
- test settings: RPMI 5 mM glucose + 10% FBS; 48 h; 1.71 µM
Numbers only; they are read as %.

The cases that follow already have their cell viability on record.
O=C(O)C1(Cc2cccc(Nc3nccs3)n2)CCC(Oc2cccc(Cl)c2F)CC1 (configuration not stated) | 66.5
FC1=CC=C(C=C1)N2/C=C\C=C(C(=O)NC3=CC=C(OC4=C5C=C[NH]C5=NC=C4)C(=C3)F)/C2=O | 71.6
CC(C)c1nc(CN(C)C(=O)N[C@H](C(=O)N[C@@H](Cc2ccccc2)C[C@H](O)[C@H](Cc2ccccc2)NC(=O)OCc2cncs2)C(C)C)cs1 | 88.8
O=c1[nH]c(=O)n([C@H]2C[C@H](O)[C@@H](CO)O2)cc1/C=C/Br | 117

Supply cell viability value. Item: COc1ccc([S+](=O)([O-])N(C(C)=O)c2ccccc2/C=C/c2cc[n+]([O-])cc2)cc1
39.1

Supply cell viability value. Item: CC(C)c1ccc2c(c1)c(SC(C)(C)C)c(CC(C)(C)C(=O)[O-])n2Cc1ccc(Cl)cc1
101

Supply cell viability value. Item: CCOC(=O)c1ccc(OC(=O)CCCCCNC(=N)N)cc1
105

----------
- Test system: SEM cells
- protocol: cell viability relative to DMSO control; higher = less cytotoxic
- test settings: HPLM + 10% dialyzed FBS; 48 h; 0.00702 µM
measurement kind: cell viability
Reply with the number and its unit after it.

ClC1=CC=C(C=C1)C(C#N)C2=C(Cl)C=C(C=C2Cl)N3\N=C/C(=O)NC3=O (centres undefined) | 104%
CC1CNc2c(cccc2[S+](=O)([O-])N[C@@H](CCCNC(=N)N)C(=O)N2CC[C@@H](C)C[C@@H]2C(=O)O)C1 (some centres undefined) | 102%
COC(=O)Nc1nc2cc(C(=O)c3ccccc3)ccc2[nH]1 | 130%
CC(C)(C)NC(=O)Nc1cccc(Nc2ncc(F)c(NC(C)(C)CO)n2)c1 | 103%
OC[C@@H](O)[C@@H](O)[C@H](O)[C@@H](O)CO | 88.2%
CNC(=O)c1ccc2cc(C3(O)CCn4cncc43)ccc2c1 (centres undefined) | 103%
COCC1(CO)C(=O)C2CCN1CC2 (centres undefined) | 112%
C[C@@H]1COCCN1c1cc(C2([S@+](C)(=N)[O-])CC2)nc(-c2ccnc3[nH]ccc23)n1 | 98.5%

Now look at this one.
Please report cell viability with SEM cells for item O=C1[C@H](Cc2ccc(O)cc2)N2C(=O)CCN(C(=O)NCc3ccccc3)[C@H]2CN1Cc1cccc2ccccc12 .
103%

----------
- System: SEM cells
- protocol: cell viability relative to DMSO control; higher = less cytotoxic
- test settings: RPMI 5 mM glucose + 10% dialyzed FBS; 48 h; 0.00702 µM
measurement kind: cell viability

CC(C)c1ccc2c(c1)c(SC(C)(C)C)c(CC(C)(C)C(=O)[O-])n2Cc1ccc(Cl)cc1 | 106%
O=C(O)CCC1CCC(c2cc(F)ccc2F)([S+](=O)([O-])c2ccc(Cl)cc2)CC1 (stereo not drawn) | 115%
O=c1[nH]c(=O)n([C@H]2C[C@H](O)[C@@H](CO)O2)cc1/C=C/Br | 103%
CNCC(O)c1ccc(O)cc1 (stereo not drawn) | 85.7%

Supply cell viability value. Item: COc1cc(F)c(F)c(Nc2ccc(I)cc2F)c1N[S+](=O)([O-])C1(C[C@H](O)CO)CC1
115%

Supply cell viability value. Item: OC[C@H]1O[C@H]([C@H](O)[C@@H]1O)N2\C=C/C(=O)NC2=O
103%

Supply cell viability value. Item: CN1CCN(C2=Nc3cc(Cl)ccc3Nc3ccccc32)CC1
104%

Supply cell viability value. Item: C[C@@]12C(=O)OC(=O)[C@@]1(C)C1CCC2O1
110%

Supply cell viability value. Item: COc1ccc([C@@H]2CC(=O)c3c(O)cc(O[C@@H]4O[C@H](CO[C@@H]5O[C@@H](C)[C@H](O)[C@@H](O)[C@H]5O)[C@@H](O)[C@H](O)[C@H]4O)cc3O2)cc1O
108%
